Origin of measurements: patent US20240209076A1

Molecular target: recombinant human IL-6 (human, UniProt P05231 30-212)
Sequence (P05231 30-212 limits assumed): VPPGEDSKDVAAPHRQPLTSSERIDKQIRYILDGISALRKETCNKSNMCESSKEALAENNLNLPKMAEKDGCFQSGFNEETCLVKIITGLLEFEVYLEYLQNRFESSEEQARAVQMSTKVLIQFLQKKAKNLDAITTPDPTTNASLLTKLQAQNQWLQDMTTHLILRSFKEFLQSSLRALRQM
Assay: SPR, IL-6 on CM5 chip, Fab lysate, 25 C
Reported values of koff for individual entries

{"columns": ["binder", "koff, s⁻¹"],
 "data": [
  ["anti-IL-6 Fab, light chain Y31G (Fab, V domains shown, see m39) VH: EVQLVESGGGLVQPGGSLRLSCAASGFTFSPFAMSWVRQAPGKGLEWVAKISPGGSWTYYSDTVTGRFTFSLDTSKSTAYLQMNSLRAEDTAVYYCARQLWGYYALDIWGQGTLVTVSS VL: DIQLTQSPSSLSASVGDRVTITCSASISVSGMYWYQQKPGKAPKLLIYDMSNLASGVPSRFSGSGSGTDFTLTISSLQPEDFATYYCMQWSGYPYTFGQGTKVEIK", 0.00511],
  ["anti-IL-6 Fab, heavy chain F27P (Fab, V domains shown, see m39) VH: EVQLVESGGGLVQPGGSLRLSCAASGPTFSPFAMSWVRQAPGKGLEWVAKISPGGSWTYYSDTVTGRFTFSLDTSKSTAYLQMNSLRAEDTAVYYCARQLWGYYALDIWGQGTLVTVSS VL: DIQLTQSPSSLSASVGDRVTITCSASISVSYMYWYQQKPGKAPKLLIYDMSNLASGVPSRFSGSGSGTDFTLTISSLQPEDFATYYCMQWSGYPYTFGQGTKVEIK", 0.00418],
  ["anti-IL-6 Fab, light chain S26G (Fab, V domains shown, see m39) VH: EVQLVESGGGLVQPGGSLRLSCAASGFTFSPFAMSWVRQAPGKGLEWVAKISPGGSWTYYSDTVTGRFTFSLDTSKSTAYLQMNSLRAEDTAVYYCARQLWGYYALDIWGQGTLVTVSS VL: DIQLTQSPSSLSASVGDRVTITCSAGISVSYMYWYQQKPGKAPKLLIYDMSNLASGVPSRFSGSGSGTDFTLTISSLQPEDFATYYCMQWSGYPYTFGQGTKVEIK", 0.00394],
  ["anti-IL-6 Fab, heavy chain A49S (Fab, V domains shown, see m39) VH: EVQLVESGGGLVQPGGSLRLSCAASGFTFSPFAMSWVRQAPGKGLEWVSKISPGGSWTYYSDTVTGRFTFSLDTSKSTAYLQMNSLRAEDTAVYYCARQLWGYYALDIWGQGTLVTVSS VL: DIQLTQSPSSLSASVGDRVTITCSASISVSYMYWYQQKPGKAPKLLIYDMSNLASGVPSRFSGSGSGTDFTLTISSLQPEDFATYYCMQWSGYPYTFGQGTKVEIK", 0.0054],
  ["anti-IL-6 Fab, light chain S30A (Fab, V domains shown, see m39) VH: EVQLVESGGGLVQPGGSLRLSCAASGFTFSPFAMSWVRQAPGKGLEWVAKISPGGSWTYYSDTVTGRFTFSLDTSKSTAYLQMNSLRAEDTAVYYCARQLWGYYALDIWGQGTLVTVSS VL: DIQLTQSPSSLSASVGDRVTITCSASISVAYMYWYQQKPGKAPKLLIYDMSNLASGVPSRFSGSGSGTDFTLTISSLQPEDFATYYCMQWSGYPYTFGQGTKVEIK", 0.00654],
  ["anti-IL-6 Fab, light chain S28W (Fab, V domains shown, see m39) VH: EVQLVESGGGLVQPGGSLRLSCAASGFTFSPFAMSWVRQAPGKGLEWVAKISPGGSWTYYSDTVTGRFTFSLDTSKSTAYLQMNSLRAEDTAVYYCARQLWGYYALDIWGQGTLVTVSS VL: DIQLTQSPSSLSASVGDRVTITCSASIWVSYMYWYQQKPGKAPKLLIYDMSNLASGVPSRFSGSGSGTDFTLTISSLQPEDFATYYCMQWSGYPYTFGQGTKVEIK", 0.00398],
  ["anti-IL-6 Fab, heavy chain F27G (Fab, V domains shown, see m39) VH: EVQLVESGGGLVQPGGSLRLSCAASGGTFSPFAMSWVRQAPGKGLEWVAKISPGGSWTYYSDTVTGRFTFSLDTSKSTAYLQMNSLRAEDTAVYYCARQLWGYYALDIWGQGTLVTVSS VL: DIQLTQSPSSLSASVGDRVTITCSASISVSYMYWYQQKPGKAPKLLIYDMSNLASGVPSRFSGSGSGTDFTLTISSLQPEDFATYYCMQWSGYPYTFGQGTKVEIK", 0.00401],
  ["anti-IL-6 Fab, heavy chain T63Q (Fab, V domains shown, see m39) VH: EVQLVESGGGLVQPGGSLRLSCAASGFTFSPFAMSWVRQAPGKGLEWVAKISPGGSWTYYSDQVTGRFTFSLDTSKSTAYLQMNSLRAEDTAVYYCARQLWGYYALDIWGQGTLVTVSS VL: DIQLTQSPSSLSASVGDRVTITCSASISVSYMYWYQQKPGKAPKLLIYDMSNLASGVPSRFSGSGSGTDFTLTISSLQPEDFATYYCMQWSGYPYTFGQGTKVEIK", 0.0057],
  ["anti-IL-6 Fab, light chain S55V (Fab, V domains shown, see m39) VH: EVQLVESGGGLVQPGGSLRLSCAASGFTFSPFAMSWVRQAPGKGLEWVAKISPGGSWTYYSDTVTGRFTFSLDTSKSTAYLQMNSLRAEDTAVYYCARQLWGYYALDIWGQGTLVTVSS VL: DIQLTQSPSSLSASVGDRVTITCSASISVSYMYWYQQKPGKAPKLLIYDMSNLAVGVPSRFSGSGSGTDFTLTISSLQPEDFATYYCMQWSGYPYTFGQGTKVEIK", 0.00516],
  ["anti-IL-6 Fab, heavy chain G66E (Fab, V domains shown, see m39) VH: EVQLVESGGGLVQPGGSLRLSCAASGFTFSPFAMSWVRQAPGKGLEWVAKISPGGSWTYYSDTVTERFTFSLDTSKSTAYLQMNSLRAEDTAVYYCARQLWGYYALDIWGQGTLVTVSS VL: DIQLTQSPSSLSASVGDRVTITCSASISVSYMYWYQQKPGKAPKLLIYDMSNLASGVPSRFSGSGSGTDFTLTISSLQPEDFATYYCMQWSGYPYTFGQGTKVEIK", 0.00505]
]}
